# assay_protocol: Metabolic stability in mouse liver microsomes assessed as compound remaining after 10 mins
# Type: ADME, Microsome
# protocol_conditions: read-out: Stability
reported_property: remaining at 10 min (%)

> print(dat)
                                smiles.text  reading
1  N#Cc1c[nH]c(C(=O)Nc2ccc(C3CCN(Cc4ccccn4)CC3)cc2C2=CCCCC2)n1       79
2  N#Cc1c[nH]c(C(=O)Nc2ccc(C3CCN(C(=O)c4ccc[n+]([O-])c4)CC3)cc2C2=CCCCC2)n1       89
3  N#Cc1c[nH]c(C(=O)Nc2ccc(C3CCNCC3)cc2C2=CCCCC2)n1.O=C(O)C(F)(F)F       96
4  N#Cc1c[nH]c(C(=O)Nc2ccc(C3CCN(C(=O)c4cccnc4)CC3)cc2C2=CCCCC2)n1       66
5  N#Cc1c[nH]c(C(=O)Nc2ccc(C3CCN(C(N)=O)CC3)cc2C2=CCCCC2)n1       70
6  N#Cc1c[nH]c(C(=O)Nc2ccc(C3CCN(C(CO)CO)CC3)cc2C2=CCCCC2)n1       94
7  CS(=O)(=O)CC(=O)N1CCC(c2ccc(NC(=O)c3nc(C#N)c[nH]3)c(C3=CCCCC3)c2)CC1       86

[a] N#Cc1c[nH]c(C(=O)Nc2ccc(C3CCN(CCO)CC3)cc2C2=CCCCC2)n1
[b] N#Cc1c[nH]c(C(=O)Nc2ccc(C3CCN(C(=O)Cc4cccnc4)CC3)cc2C2=CCCCC2)n1
In: // returns a or b , whichever has the lower remaining at 10 min Please respond with the label that marks your chosen entry.
Out: b

* * *

# assay_protocol: Half life in CD1 mouse at 0.5 mg/kg, iv
# Type: ADME, organism-based
# Design: dose 0.5 mg/kg, route intravenous
# protocol_conditions: CD1, mouse, in vivo
reported_property: half-life (h)

[A] CS(=O)(=O)CCN1CCC(c2ccc(NC(=O)c3nc(C#N)c[nH]3)c(C3=CCCCC3)c2)CC1
[B] Cn1cnc(CC(=O)N2CCC(c3ccc(NC(=O)c4nc(C#N)c[nH]4)c(C4=CCCCC4)c3)CC2)c1
[C] N#Cc1c[nH]c(C(=O)Nc2ccc(C3CCN(C(=O)NCCO)CC3)cc2C2=CCCCC2)n1
[D] N#Cc1c[nH]c(C(=O)Nc2ccc(C3CCNCC3)cc2C2=CCCCC2)n1.O=C(O)C(F)(F)F
In: Please rank the 4 items above; order by half-life, the highest number leading. // list labels; follow requested order
Out: D, C, A, B

[P] CS(=O)(=O)CC(=O)N1CCC(c2ccc(NC(=O)c3nc(C#N)c[nH]3)c(C3=CCCCC3)c2)CC1
[Q] CC1CCN(c2cc(N3CCN(C)CC3)ccc2NC(=O)c2ccc(C#N)o2)CC1
[R] N#Cc1c[nH]c(C(=O)Nc2ccc(C3CCN(C(=O)Cc4ccncc4)CC3)cc2C2=CCCCC2)n1
In: Hi! Can you put these in order of half-life, lowest number first? // list labels; follow requested order
Out: R, P, Q

* * *

# assay_protocol: Clearance in CD1 mouse at 0.5 mg/kg, iv
# Format: ADME, organism-based
# Set-up: dose 0.5 mg/kg, route intravenous
# protocol_conditions: in vivo
reported_property: clearance (mL/min/kg)

Before answering, review these 2 worked examples.
> print(dat)
                                smiles.text  reported.property  reading
1  CS(=O)(=O)CC(=O)N1CCC(c2ccc(NC(=O)c3nc(C#N)c[nH]3)c(C3=CCCCC3)c2)CC1          clearance     23.9
2  N#Cc1c[nH]c(C(=O)Nc2ccc(C3CCN(C(=O)NCCO)CC3)cc2C2=CCCCC2)n1          clearance     49.2

[I] CS(=O)(=O)CCN1CCC(c2ccc(NC(=O)c3nc(C#N)c[nH]3)c(C3=CCCCC3)c2)CC1
[II] CC1CCN(c2cc(N3CCN(C)CC3)ccc2NC(=O)c2ccc(C#N)o2)CC1
In: Rank I against II by their clearance values and give the higher one. Please respond with the label that marks your chosen entry.
Out: II

* * *

# assay_protocol: Oral bioavailability in CD1 mouse at 5 mg/kg
# Format: ADME, organism-based
# protocol_conditions: in vivo
reported_property: bioavailability (%)

Before answering, review these 3 worked examples.
> print(dat)
                                smiles.text  reported.property  display.unit  reading
1  N#Cc1c[nH]c(C(=O)Nc2ccc(C3CCN(CC(N)=O)CC3)cc2C2=CCCCC2)n1    bioavailability             %      9.8
2  N#Cc1c[nH]c(C(=O)Nc2ccc(C3CCN(CCN4CCOCC4)CC3)cc2C2=CCCCC2)n1    bioavailability             %      101
3  CS(=O)(=O)CC(=O)N1CCC(c2ccc(NC(=O)c3nc(C#N)c[nH]3)c(C3=CCCCC3)c2)CC1    bioavailability             %      2.3

[I] CS(=O)(=O)CCN1CCC(c2ccc(NC(=O)c3nc(C#N)c[nH]3)c(C3=CCCCC3)c2)CC1
[II] Cn1cnc(CC(=O)N2CCC(c3ccc(NC(=O)c4nc(C#N)c[nH]4)c(C4=CCCCC4)c3)CC2)c1
In: Rank I against II by their bioavailability values and give the higher one. Please respond with the label that marks your chosen entry.
Out: I

[I] CC1CCN(c2cc(N3CCN(C)CC3)ccc2NC(=O)c2ccc(C#N)o2)CC1
[II] N#Cc1c[nH]c(C(=O)Nc2ccc(C3CCN(C(=O)Cc4ccncc4)CC3)cc2C2=CCCCC2)n1
In: // returns I or II , whichever has the lower bioavailability Please respond with the label that marks your chosen entry.
Out: II
(II: 18%, I: 75%)

[a] N#Cc1c[nH]c(C(=O)Nc2ccc(C3CCNCC3)cc2C2=CCCCC2)n1.O=C(O)C(F)(F)F
[b] CN(C)CC(=O)N1CCC(c2ccc(NC(=O)c3nc(C#N)c[nH]3)c(C3=CCCCC3)c2)CC1
In: // returns a or b , whichever has the lower bioavailability Please respond with the label that marks your chosen entry.
Out: a

[1] CC(=O)N1CCC(c2ccc(NC(=O)c3nc(C#N)c[nH]3)c(C3=CCCCC3)c2)CC1
[2] N#Cc1c[nH]c(C(=O)Nc2ccc(C3CCN(C(=O)NCCO)CC3)cc2C2=CCCCC2)n1
In: Rank 1 against 2 by their bioavailability values and give the higher one. Please respond with the label that marks your chosen entry.
Out: 1

* * *

# assay_protocol: Metabolic stability in mouse liver microsomes assessed as compound remaining after 10 mins
# Format: ADME, Microsome
# protocol_conditions: read-out: Stability
reported_property: remaining at 10 min (%)

> print(dat)
                                smiles.text    reported.property  display.unit  reading
1  N#Cc1c[nH]c(C(=O)Nc2ccc(C3CCN(C(=O)Cc4c[nH]cn4)CC3)cc2C2=CCCCC2)n1  remaining at 10 min             %      100
2  N#Cc1c[nH]c(C(=O)Nc2ccc(C3CCN(CCN4CCOCC4)CC3)cc2C2=CCCCC2)n1  remaining at 10 min             %       96
3  N#Cc1c[nH]c(C(=O)Nc2ccc(C3CCN(C(=O)CNCCO)CC3)cc2C2=CCCCC2)n1  remaining at 10 min             %       79
4  N#Cc1c[nH]c(C(=O)Nc2ccc(C3CCN(CC(=O)O)CC3)cc2C2=CCCCC2)n1  remaining at 10 min             %       70
5  N#Cc1c[nH]c(C(=O)Nc2ccc(C3CCN(c4ccccn4)CC3)cc2C2=CCCCC2)n1  remaining at 10 min             %       77

* * *

# assay_protocol: Half life in CD1 mouse at 5 mg/kg, po
# Assay type: ADME, organism-based
# Design: dose 5 mg/kg, route oral
# protocol_conditions: in vivo
reported_property: half-life (min)

Before answering, review these 5 worked examples.
> print(dat)
                                smiles.text  display.unit  reading
1  CC1CCN(c2cc(N3CCN(C)CC3)ccc2NC(=O)c2ccc(C#N)o2)CC1           min      186
2  CC(=O)N1CCC(c2ccc(NC(=O)c3nc(C#N)c[nH]3)c(C3=CCCCC3)c2)CC1           min      113
3  CS(=O)(=O)CCN1CCC(c2ccc(NC(=O)c3nc(C#N)c[nH]3)c(C3=CCCCC3)c2)CC1           min       93
4  Cn1cnc(CC(=O)N2CCC(c3ccc(NC(=O)c4nc(C#N)c[nH]4)c(C4=CCCCC4)c3)CC2)c1           min       24
5  N#Cc1c[nH]c(C(=O)Nc2ccc(C3CCN(C(=O)NCCO)CC3)cc2C2=CCCCC2)n1           min     97.8

[a] CN(C)CC(=O)N1CCC(c2ccc(NC(=O)c3nc(C#N)c[nH]3)c(C3=CCCCC3)c2)CC1
[b] N#Cc1c[nH]c(C(=O)Nc2ccc(C3CCN(C(=O)Cc4ccncc4)CC3)cc2C2=CCCCC2)n1
[c] N#Cc1c[nH]c(C(=O)Nc2ccc(C3CCN(CC(N)=O)CC3)cc2C2=CCCCC2)n1
In: Hi! Can you put these in order of half-life, lowest number first? // list labels; follow requested order
Out: b, c, a
(b: 13.8 min, c: 52.8 min, a: 140 min)
